Reported values of inhibition at 100 µM for individual entries
# measured on: H⁺/K⁺ ATPase (Oryctolagus cuniculus)
# Construct: Rabbit gastric glands are isolated from gastric mucosa from the corpus region of the stomach; from tissue; host or cells: rabbit isolated gastric glands (gastric mucosa, corpus region of the stomach)
# Sequence (P27112 whole entry): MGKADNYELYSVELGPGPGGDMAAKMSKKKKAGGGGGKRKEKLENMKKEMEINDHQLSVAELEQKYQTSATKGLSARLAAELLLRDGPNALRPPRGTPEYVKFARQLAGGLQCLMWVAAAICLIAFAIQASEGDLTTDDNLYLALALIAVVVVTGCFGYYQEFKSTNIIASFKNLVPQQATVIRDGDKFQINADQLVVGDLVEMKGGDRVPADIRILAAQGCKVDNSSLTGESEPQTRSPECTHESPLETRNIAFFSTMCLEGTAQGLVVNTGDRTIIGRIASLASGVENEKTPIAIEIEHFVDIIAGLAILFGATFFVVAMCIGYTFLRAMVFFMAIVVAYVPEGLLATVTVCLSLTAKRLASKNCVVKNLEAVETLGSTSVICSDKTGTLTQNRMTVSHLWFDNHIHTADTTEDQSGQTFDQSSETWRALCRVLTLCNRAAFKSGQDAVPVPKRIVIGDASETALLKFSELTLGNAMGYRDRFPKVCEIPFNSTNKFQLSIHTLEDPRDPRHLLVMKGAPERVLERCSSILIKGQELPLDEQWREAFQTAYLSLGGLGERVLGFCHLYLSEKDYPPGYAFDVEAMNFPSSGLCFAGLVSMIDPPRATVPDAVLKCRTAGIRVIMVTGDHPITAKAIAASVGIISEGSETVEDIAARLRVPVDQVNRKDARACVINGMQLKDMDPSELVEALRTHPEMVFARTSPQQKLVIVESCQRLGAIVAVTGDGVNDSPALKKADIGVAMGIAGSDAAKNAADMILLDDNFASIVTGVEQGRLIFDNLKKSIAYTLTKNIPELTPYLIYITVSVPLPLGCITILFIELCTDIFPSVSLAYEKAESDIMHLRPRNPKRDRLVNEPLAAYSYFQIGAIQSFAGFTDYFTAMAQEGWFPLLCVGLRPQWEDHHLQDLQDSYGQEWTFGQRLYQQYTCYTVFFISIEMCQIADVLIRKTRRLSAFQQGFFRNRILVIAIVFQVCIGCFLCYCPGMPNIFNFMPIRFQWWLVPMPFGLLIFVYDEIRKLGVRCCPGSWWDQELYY
# Sequence (P18597 whole entry partner): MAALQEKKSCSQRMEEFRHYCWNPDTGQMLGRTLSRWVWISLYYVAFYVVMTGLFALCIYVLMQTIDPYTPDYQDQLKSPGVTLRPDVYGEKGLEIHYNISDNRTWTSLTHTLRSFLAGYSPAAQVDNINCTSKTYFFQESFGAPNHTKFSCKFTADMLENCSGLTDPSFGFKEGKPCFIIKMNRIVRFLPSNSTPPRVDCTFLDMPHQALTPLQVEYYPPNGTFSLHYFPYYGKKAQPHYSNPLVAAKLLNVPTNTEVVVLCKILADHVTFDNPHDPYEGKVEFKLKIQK
# assay notes: inhibition of 14C-aminopyrine uptake in rabbit isolated gastric glands stimulated by DBcAMP or high K+
# Format: cell-based
# measurement conditions: at 10⁻⁴M; % inhibition of the maximum response to the secretagogue; read-out: % Inhibition to stimulation by: K⁺

| compound | measured on | quantity unit | inhibition at 100 µM |
| --- | --- | --- | --- |
| Cc1ccc(C2Cn3c(nc4cc(Cl)c(Cl)cc43)S2)cn1 (centres unmarked) [Example 6] | H⁺/K⁺ ATPase (Oryctolagus cuniculus) | % | 187 |
| c1ccc(-c2cccc(-c3cn4c(nc5ccccc54)s3)n2)cc1 [Example 37] | H⁺/K⁺ ATPase (Oryctolagus cuniculus) | % | 381 |
| CCc1ccc(-c2cn3c(nc4ccccc43)s2)nc1 [Example 27] | H⁺/K⁺ ATPase (Oryctolagus cuniculus) | % | 142 |
| [O-][S+]1c2nc3ccccc3n2CC1c1ccccn1 (centres unmarked) [Example 2] | H⁺/K⁺ ATPase (Oryctolagus cuniculus) | % | 91 |
| Cc1cc2nc3n(c2cc1C)CC(c1ccccn1)[S+]3[O-] (centres unmarked) [Example 13] | H⁺/K⁺ ATPase (Oryctolagus cuniculus) | % | 209 |
